system: COLO 205 colon; experiment: NCI-60 one-dose screen, 48 h (100 = growth as untreated, 0 = no growth, -100 = all killed); details: 10 µM unless noted
This is part of a sample that, as a whole, favours compounds with a hit. Of some 83,000 tested, about 20% had one in any assay.
The following compounds are shown together with reported growth values.
Give the value, in units of %, as a plain number.

// solved cases for growth follow
| compound | growth [%] |
| --- | --- |
| CCN=Cc1c(O)c(O)c(C(C)C)c2cc(C)c(-c3c(C)cc4c(C(C)C)c(O)c(O)c(C=NCC)c4c3O)c(O)c12 | 7.89 |
| Cc1ccccc1OC(=O)c1cccc(Cl)c1 | 129 |

[Q] Return growth measured with COLO 205 colon given this compound: `COc1cc(Cl)cc(-c2nn(C(=O)NS(=O)(=O)c3ccccc3)cc2-c2ccncc2)c1`
[A] 69.7

[Q] For `O=C(NNc1ccc(-c2ccccc2)nn1)c1ccccc1` then?
[A] 107

[Q] And the next one, `COc1cccc(-c2[nH]c(=S)ncc2C(=O)c2ccccc2)c1` ?
[A] 84.7

[Q] Request: `COC(=O)C(=Cc1ccccc1[N+](=O)[O-])C(=O)OC`
[A] 38

[Q] Again, but for COc1ccc2nc3c(cc2c1)C(=O)CC(c1ccccc1)C3 (stereo unspecified)
[A] 1.93

[Q] Again, but for `COc1ncc(-c2ccc3nc(N)n(-c4ccccc4C(F)(F)F)c(=O)c3c2)cc1S(=O)(=O)Nc1ccc(F)cc1F`
[A] -66.2

[Q] Consider next the compound CC/C=C(\C)C(CCC)(CN=O)C(=O)OCC (stereo unspecified) in the same way.
[A] 104

[Q] Try COc1ccc2c(c1)C(C)Cc1c(Cl)ncnc1N2C (stereo unspecified) next.
[A] -66

[Q] Thanks! And `COc1ccc(C(=O)CCC(=O)O)cc1` ?
[A] 101

----------
system: CCRF-CEM leukemia; test: NCI-60 one-dose screen, 48 h; conditions: 10 µM unless noted
Compounds without any hit were thinned out: in the full panel of roughly 83,000, 20% have a hit. Activity calls are given as the source filed them. Rule for the calls: active = growth percent below 10; inactive = the rest.
Choose the fitting class; nothing outside True (active), False (inactive) is accepted.

# example entries with known answers
| structure_smiles_string | group_label |
| --- | --- |
| C=C(C)[C@@H]1CC[C@]2(C)[C@H](CC=C3[C@@H]4[C@@H](C)[C@H](C)CC[C@]4(C(N)=O)CC[C@]32C)[C@@]1(C)CCC#N | True |
| COc1cc2c(=O)[nH]c3cc([N+](=O)[O-])ccc3c2cc1[N+](=O)[O-] | False |
| CCN(CC)c1ccc(/C=C/c2ccc3cc(C)ccc3[n+]2CC)cc1 | True |
| CC(C)c1ccc(/C=N/N=C(N)N)cc1 | False |
| CCn1cc(-c2[nH]c(=S)ncc2-c2ccc(Cl)cc2)c(-c2ccc(Br)cc2)n1 | False |

Turning to the following compound.
[Q] What is the recorded call for this compound in the test? `O=C(NCCO)c1cccnc1`
[A] False

----------
system: MDA-MB-231 breast; test: NCI-60 one-dose screen, 48 h (100 = growth as untreated, 0 = no growth, -100 = all killed); conditions: 10 µM unless noted
The panel holds about 83,000 compounds, 20% with a hit somewhere; the sample as a whole holds those more often.
Measured growth, listed per entry.
Return type: number; implicit unit %.

Solved cases below.
| compound | target | measured_number |
| --- | --- | --- |
| COc1ccccc1S(=O)Nc1ccccc1 (stereo not drawn) | MDA-MB-231 breast | 92.5 |
| COc1cc(NN=C(c2ccc(O)cc2)c2ccc(O)cc2)c([N+](=O)[O-])cc1[N+](=O)[O-] | MDA-MB-231 breast | 91.9 |
| CCOc1ccc(/C=C(\C#N)c2cc3ccccc3[nH]2)cc1 | MDA-MB-231 breast | 71.9 |
| Nc1cc(Cl)cc2cccnc12 | MDA-MB-231 breast | 95.8 |
| Cc1ccc(S(=O)(=O)Oc2ccc([N+](=O)[O-])cc2[N+](=O)[O-])cc1 | MDA-MB-231 breast | 94.3 |
| O=C(Nc1ccc(CN2CCOCC2)c(C(F)(F)F)c1)c1nc2ccc3[nH]ncc3c2c2c1CCCC2 | MDA-MB-231 breast | 95.9 |

[Q] Which measured growth value corresponds to `Cc1cc(NN=C(c2ccc(O)cc2)c2ccc(O)cc2)c([N+](=O)[O-])cc1[N+](=O)[O-]` ?
[A] 59.6

[Q] Note, next up: `O=C(N[C@@H]1CCCc2ccccc21)[C@H](CCC(=O)N1CCN(C2CCCCC2)CC1)N1C(=O)[C@@H](N2C(=O)OC[C@@H]2c2ccccc2)[C@H]1/C=C/c1ccccc1`
[A] 16.4

----------
Attribute: growth
tested on: OVCAR-3 ovarian; assay: NCI-60 one-dose screen, 48 h (100 = growth as untreated, 0 = no growth, -100 = all killed); conditions: 10 µM unless noted
This is part of a sample that, as a whole, favours compounds with a hit. Of some 83,000 tested, about 20% had one in any assay. Activity calls are given as the source filed them. The calls were made as follows: active = growth percent below 10; inactive = the rest.

# example entries with known answers
| molecule | growth |
| --- | --- |
| CC(C)=CC/C=C(/C)[C@H]1CC[C@]2(C)[C@@H]1CC[C@@H]1[C@@]3(C)CCCNC(C)(C)[C@@H]3CC[C@]12C | -47.8% [100 µM] (active) |
| NC1=NC(=O)NC1(c1ccccc1)c1ccccc1 | 105% (inactive) |
| CCN(CC)CC(C)Nc1ccc(C)c2sc3ccccc3c(=O)c12 (configuration not stated) | 77.5% (inactive) |

Turning to the following molecule.
[Q] Look up growth: `O=[N+]([O-])c1cc(CCl)ccc1OCCBr`
[A] 105% (inactive)

----------
tested on: COLO 205 colon; assay: NCI-60 one-dose screen, 48 h (100 = growth as untreated, 0 = no growth, -100 = all killed); conditions: 10 µM unless noted
Compounds without any hit were thinned out: in the full panel of roughly 83,000, 20% have a hit.
We use 20% as the dividing line for growth: on or above the line is 1, below is 0.

These recorded examples may help you get a feel for the data.
| structure_smiles_string | group_label |
| --- | --- |
| O=C(OCc1ccc2c(Cl)cc(Cl)c(O)c2n1)N1CCNCC1 | 1 |
| CNc1cc(C(=O)O)nc(NC)n1 | 1 |
| O=C(NCCCCCCCNC(=O)OCc1ccc2c(Cl)cc(Cl)c(O)c2n1)OCc1ccc2c(Cl)cc(Cl)c(O)c2n1 | 0 |

[Q] Would you say `Cc1cc(C)c(O)c(CNCCCCCCNCc2cc(C)cc(C)c2O)c1` shows growth at minimum 20%?
[A] 0

----------
system: NCI-H226 lung; test: NCI-60 one-dose screen, 48 h (100 = growth as untreated, 0 = no growth, -100 = all killed); conditions: 10 µM unless noted
This is part of a sample that, as a whole, favours compounds with a hit. Of some 83,000 tested, about 20% had one in any assay.
measurement_type: growth (%)
Write the value in % as a bare number.

| structure_smiles_string | growth (%) |
| --- | --- |
| NC(=S)Cc1ccccc1 | 96.8 |

[Q] Give the measured growth of `O=S(=O)(c1ccc(N/N=C\c2ccccc2Cl)cc1)c1ccc(N/N=C/c2ccccc2Cl)cc1` .
[A] 74.9

[Q] Cool, now `c1cc2ccc1CNCCN1CCNCc3ccc(cc3)Oc3ccc(cc3)CNCCN(CCNCc3ccc(cc3)O2)CCNCc2ccc(cc2)Oc2ccc(cc2)CNCC1`
[A] -56.6

[Q] Please give the result for `COc1ccc(OC)c([N+](=O)[O-])c1C(=O)CNC(C)=O` too.
[A] 101

----------
Entries and their growth values follow.
test system: NCI-H460 lung; assay: NCI-60 one-dose screen, 48 h (100 = growth as untreated, 0 = no growth, -100 = all killed); details: 10 µM unless noted
Compounds without any hit were thinned out: in the full panel of roughly 83,000, 20% have a hit.
Write down the numeric answer in % and omit the unit.

| compound | growth (%) |
| --- | --- |
| CC(C)C1=NOC(=O)C1=Cc1cn(-c2cccnc2)nc1-c1ccccc1 | 103 |
| Cc1cc(SC#N)ncn1 | 99.5 |
| CCOC(=O)/C(C#N)=C(\C)CCc1ccccc1 | 105 |

[Q] If you can, please state the reported growth value of O=c1[nH]cnc2c1ccn2C1OC(CO)C(O)C1O (centres undefined) .
[A] 49.4

----------
test system: SNB-75 CNS; experiment: NCI-60 one-dose screen, 48 h; conditions: 10 µM unless noted
About 83,000 compounds went through this panel and 20% of them were active in at least one assay; those are over-represented in the sample as a whole. Active and inactive are the calls of the source. Rule for the calls: active = growth percent below 10; inactive = the rest.
Output constraint: value belongs to true (1) = active, false (0) = inactive

| molecule | group_label |
| --- | --- |
| CCCc1cc2cc(-n3nc(C)c4c3CC(C)(C)CC4=O)cc(NC3CCSCC3)c2c(=O)[nH]1 | false (0) |
| CC(C)[C@H]1CCC2=C3CC[C@]45OC(=O)[C@@]6(CCC(C)(C)C[C@H]64)CC[C@@]5(C)[C@]3(C)CC[C@@]21C | false (0) |
| Cn1cc(-c2noc(-c3cn(C)c4ncc(F)cc34)n2)c2cc(Br)ccc21 | false (0) |
| O=C(N=c1n(-c2ccccc2)nc2n1CCN2C1=NCCN1C(=O)c1ccc(Cl)cc1)c1ccc(Cl)cc1 | false (0) |
| COc1cccc(-c2[nH]c(=S)ncc2C(=O)c2ccccc2)c1 | false (0) |
| CCN(CC)CCS(=O)(=O)CCNc1ccnc2cc(Cl)ccc12 | true (1) |
| CCCCCCSc1ncnc2nc[nH]c12 | false (0) |
| Cc1ccc(Cn2c(O)c(N=NC(=O)c3ccc(S(N)(=O)=O)cc3)c3ccccc32)cc1 | false (0) |

[Q] Write down the call the test reported for this molecule. Item: `COc1cc2c(c(OC)c1OC)-c1cc(I)c(O)cc1[C@@H](NC(C)=O)CC2`
[A] false (0)

[Q] Now give it for `O=C1Nc2ccccc2/C1=C/C(=O)c1ccc(N2CCCC2)cc1` too.
[A] false (0)
